# Test system: mice
# experimentDescription: Psychomotor 6 Hz (32 mA) seizure test
# Format: in vivo, mouse
# assayContext: mice i.p., 100 mg/kg, 0.5 h
Listed compounds paired with reported protection in the 6 Hz (32 mA) test
Entry rule: numbers only, all in %.

Prompt: Please list protection in the 6 Hz (32 mA) test recorded for the compound CN(C)C1CC(=O)N(C(C(=O)N2CCN(c3cccc(OC(F)(F)F)c3)CC2)c2ccccc2)C1=O.Cl (stereo not drawn)
Completion: 50

Prompt: Supply recorded protection in the 6 Hz (32 mA) test for CNC1CC(=O)N(C(C(=O)N2CCN(c3cccc(C(F)(F)F)c3)CC2)c2ccccc2)C1=O.Cl (stereo not drawn) here.
Completion: 50

Prompt: Given the compound CN(C)C1CC(=O)N(C(C(=O)N2CCN(c3cccc(C(F)(F)F)c3)CC2)c2ccccc2)C1=O.Cl (stereo not drawn) , write its reported protection in the 6 Hz (32 mA) test.
Completion: 75

Prompt: Supply reported protection in the 6 Hz (32 mA) test belonging to this compound: CN(C)C1CC(=O)N([C@@H](C(=O)N2CCN(c3cccc(C(F)(F)F)c3)CC2)c2ccccc2)C1=O.Cl (stereo partly drawn)
Completion: 75

Prompt: Give recorded protection in the 6 Hz (32 mA) test. CN(C)C1CC(=O)N([C@@H](C(=O)N2CCN(c3cccc(OC(F)(F)F)c3)CC2)c2ccccc2)C1=O.Cl (stereo partly drawn)
Completion: 75

Prompt: Give reported protection in the 6 Hz (32 mA) test value for CCN(CC)C1CC(=O)N(C(C(=O)N2CCN(c3cccc(C(F)(F)F)c3)CC2)c2ccccc2)C1=O.Cl (stereo not drawn)
Completion: 75

Value source: paper PMC8658016
